- TARGET: hen egg lysozyme, P00698
- Sequence (P00698 19-147): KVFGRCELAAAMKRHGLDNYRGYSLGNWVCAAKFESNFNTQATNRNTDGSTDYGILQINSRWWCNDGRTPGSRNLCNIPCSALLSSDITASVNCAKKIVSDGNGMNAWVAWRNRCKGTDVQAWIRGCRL
- RUN DESCRIPTION: ELISA
- RUN CONDITIONS: chain shown with the change;; parent: est. 0.92; read off a plot
ATTRIBUTE MEASURED: EC50 (µg/mL)

(1) anti-lysozyme VHH D3-L11, wild type A79N (protein) DVQLVESGGGSVQAGGSLRLSCAASGSTDSIEYMTWFRQAPGKAREGVAALYTHTGNTYYTDSVKGRFTISQDKAKNMNYLRMDSVKSEDTAIYTCGATRKYVPVRFALDQSSYDYWGQGTQVTVSS
(2) anti-lysozyme VHH D3-L11, wild type A79M (protein) DVQLVESGGGSVQAGGSLRLSCAASGSTDSIEYMTWFRQAPGKAREGVAALYTHTGNTYYTDSVKGRFTISQDKAKNMMYLRMDSVKSEDTAIYTCGATRKYVPVRFALDQSSYDYWGQGTQVTVSS
INPUT: Would you mind telling me which has the lower recorded EC50 between 1 and 2 ? Give the label of your selection.
OUTPUT: 2

Data origin, for the record: paper PMC10039853
